Origin of measurements: the supplement of paper PMC10567573

Measured protein stability index values are reported for all entries that follow.
ASSAY NAME: protein stability index of a GFP-peptide fusion (GPS, HEK-293T) (PSI 1-6); higher = more stable;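 further: 24-mer peptide tiles fused after GFP, lentivirally expressed, FACS-sorted into six equal bins by GFP/DsRed ratio, decoded by Illumina sequencing, PSI is the read-weighted mean bin number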
PROTOCOL CONDITIONS: treatment: DMSO; c terminus: a fixed tail appended
Simply state the number, no unit and no words.

SEQUENCE STRING | ASSAY ENDPOINT | MEASURED
GLGGGSSRTSCRLSGGLGAGSCRL [KRT17] | protein stability index | 2.41
KINENVAAGMRFPLPEAIDPDVGV [PCDHGA10] | protein stability index | 3.79
ESITSAGRDDLESFQLEISGFLKE [FAM98B] | protein stability index | 3.9
TACLTDRGIIMTFGSGSNGCLGHG [NEK8] | protein stability index | 2.23
RAKGLLGTTVTFDDLMGILCKSVL [FEM1C] | protein stability index | 2.76

Now look at this entry.
// query Which protein stability index is listed for DKDRRFVFSYFLATDMISIFEPPV [EFHC1] ?
// result 2.38

* * *

ASSAY NAME: protein stability index of a GFP-peptide fusion (GPS, HEK-293T) (PSI 1-6); higher = more stable
PROTOCOL CONDITIONS: treatment: MLN4924 1 uM, 8 h; c terminus: a fixed tail appended
Recorded protein stability index determines the group label, using group A: < 3; group B: ≥ 3 and < 4; group C: ≥ 4

Example cases with answers are listed next.
SEQUENCE STRING | QUALITATIVE LABEL
WGVFYYFVSALGITAGAHRLWSHR [SCD] | group A
NIYCLNCEVPTCSLCKVFGAHKDC [TRIM55] | group B
ERVVINISGLRFETQLKTLAQFPN [KCNA1] | group A

// query State the class of the sequence shown: GLGYFSCHSHTVVQDYSYFFFLRM [CCDC3]
// result group A

// query Into which bin does this sequence go? ASRVSKVNDKRRKKSGEKEQHISK [KMT2E]
// result group C

* * *

ASSAY NAME: protein stability index of a GFP-peptide fusion (GPS, HEK-293T) (PSI 1-6); higher = more stable
PROTOCOL CONDITIONS: treatment: MLN4924 1 uM, 8 h; c terminus: a fixed tail appended
# cutoff 4 applies to protein stability index; >= gives Y, < gives N

SEQUENCE STRING | QUALITATIVE LABEL
VFLPIVVLIFKSILFLPCLRKKIL [STEAP1] | N
TEGFPPGGGNARATGMFLQYTVPG [ZFYVE21] | N
EPELQVGIDIMKTSFPGRGSIPEF [AASDHPPT] | N
KVQTVIILGKVILWILHLLLECYI [TMEM192] | N

// query State whether the measured protein stability index reaches 4, counting equality as reaching it, for PLGSPSPRPRRAKRFASLSRFVET [ADAMTS4]
// result N

// query Reported protein stability index reaches at least 4 for RGEVLPEEITEESLEESVGKPLYL [INTS3] ?
// result Y

* * *

ASSAY NAME: protein stability index of a GFP-peptide fusion (GPS, HEK-293T) (PSI 1-6); higher = more stable
PROTOCOL CONDITIONS: treatment: MLN4924 1 uM, 8 h; c terminus: a fixed tail appended
ASSAY ENDPOINT: protein stability index
Lab note: jot down the number only; don't add units.

# example entries with known answers
SEQUENCE STRING | protein stability index
VSLHQASLGGCSQDFLLFSPEVES [NFE2L1] | 2.97
VRVLDMVAKLESECLKRQGQREPG [FBXO34] | 4.17

// query Item KYLKPSGNMFPTIGDVHLAPFTDE [CARM1] has what recorded protein stability index?
// result 3.61

// query Requested field: protein stability index. Item: KPAEYGYVSLGRLGAAKGALHPGC [CEBPB]
// result 3.06

// query Returns the measured protein stability index for the input sequence. Input: KFTNKEWETIRSFKDEWTQLDMFY [AASDHPPT]
// result 2.22

// query Which value of protein stability index has been reported for LYAFFTRTHGDMHSLVRSRHRIPE [TRIB3] in the records?
// result 2.26

// query Requested field: protein stability index. Item: LSILRHQNLLKELQDLALQGAKER [CHGA]
// result 3.08

// query What value of measured protein stability index is listed for GKKDKHSQSPRAAGPREGHSHSHH [PBXIP1] ?
// result 5.26

// query Need protein stability index, item ATRSIQVDGKTIKAQIWDTAGQER [RAB11A]
// result 4.37

// query Return reported protein stability index; argument: LRRVLDELTLARTDLEMQIEGLKE [KRT16]
// result 3.07

// query Please give the measured protein stability index for this sequence: GEKPYLSPDILEEKHCEFKQLALD [ATL3]
// result 4.92
